The origin of these recorded values is ChEMBL document CHEMBL5442219.

target: UniProt:P34969; conditions: Compound concentration 10 µM; call rule not given here
Sequence (P34969 whole entry): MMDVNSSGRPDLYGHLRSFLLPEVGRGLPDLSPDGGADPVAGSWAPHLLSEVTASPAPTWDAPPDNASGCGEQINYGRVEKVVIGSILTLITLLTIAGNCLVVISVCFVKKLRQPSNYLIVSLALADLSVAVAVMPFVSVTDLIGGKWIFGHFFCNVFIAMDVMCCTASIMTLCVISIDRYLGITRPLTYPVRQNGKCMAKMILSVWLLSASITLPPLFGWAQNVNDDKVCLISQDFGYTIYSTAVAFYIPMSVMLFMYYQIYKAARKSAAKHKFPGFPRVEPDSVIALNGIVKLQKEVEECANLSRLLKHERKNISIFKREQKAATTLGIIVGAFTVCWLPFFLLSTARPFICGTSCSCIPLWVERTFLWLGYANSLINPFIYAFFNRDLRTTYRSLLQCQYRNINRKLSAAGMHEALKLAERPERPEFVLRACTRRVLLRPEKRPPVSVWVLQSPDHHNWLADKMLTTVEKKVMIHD
// allowed return values: 1 (yes) = active, 0 (no) = inactive

Take a look at these entries with their results.
[[record]]
compound = "Cc1cc([C@@H](C)Nc2cccc(-c3cc(C)c(C(=O)N[C@@H](C)C(=O)O)c(C)c3)c2)ccc1Cl"
class_label = "0 (no)"

[[record]]
compound = "Cc1ccccc1C(=O)Nc1ccc(C(=O)N2CCCC(O)c3cc(Cl)ccc32)c(C)c1 (stereo not given)"
class_label = "0 (no)"

[[record]]
compound = "Cc1cc(C(=O)N2Cc3cnn(C)c3Nc3ccccc32)ccc1CNC(=O)N1CCC[C@H]1C(=S)N1CCCN(C)CC1"
class_label = "0 (no)"

[[record]]
compound = "Cc1c(C(=O)NC2CCCCC2)sc2nc3ccc(N)cc3n12"
class_label = "0 (no)"

[[record]]
compound = "Cc1cccc([C@H](C)c2c[nH]cn2)c1C"
class_label = "1 (yes)"


Prompt: # outcome recorded in this test, key = COc1cc2c(CCNC(C)=O)c[nH]c2cc1Cl
Response: 0 (no)

Prompt: // next record O=C(O)c1cc(-c2ccc(C3CCNCC3)cc2)c2ccc(-c3ccc(C(F)(F)F)cc3)cc2c1
Response: 1 (yes)

Prompt: // next record COC1CCN(c2cccc(-c3cc(NC(C)=O)nc(-n4nc(C)cc4C)n3)n2)CC1
Response: 0 (no)
